Assay: Flash foam generation test (Example 70)
Format: physicochemical
Conditions: 15 min; 20 mg in 4 mL deionized water (10 wt % [sic]), 2 mL shaken 30 s in 15 mL tube, duplicate average
Experimental: 20 mg of each surface-active composition for testing was dissolved in deionized water (4 mL) to give a 10 wt % solution, 2 mL was added to a 15 mL FALCON tube. Each falcon tube was secured in a holder before being vigorously shook for 30 seconds. The initial foam height and structure was noted. The foam height was then noted at 5 min, 10 min, 15 min, 30 min, 45 min, 1 hr and 2 hr after the initial measurement. The experiment was repeated in duplicate. […]
endpoint: Volume of foam after given time (cm^3)
Just the number in cm^3, nothing appended.

Problem: Recorded Volume of foam after given time of CCCCCCCCCCN(C(C)=O)C1OC[C@@H](O)[C@H](O)[C@H]1O (stereo partly shown) [Example 11 composition, N-decyl N-acetyl xylosylamine] , please.
Solution: 2.5

Problem: Which value of Volume of foam after given time has been reported for CCCCCCCCCCO[C@@H]1O[C@H](CO)[C@@H](O)[C@H](O)[C@H]1O [Decyl glucoside, reference compound] in the records?
Solution: 11.8

Problem: I'd like to know its Volume of foam after given time. The molecule in question is CCCCCCCCCCCCN(C(C)=O)C1O[C@H](CO)[C@@H](O[C@@H]2O[C@H](CO)[C@@H](O)[C@H](O)[C@H]2O)[C@H](O)[C@H]1O (stereo partly shown) [Example 23 composition, N-dodecyl N-acetyl cellobiosylamine]
Solution: 3.5

Problem: Return reported Volume of foam after given time; argument: CCCCCCCCCCCCOS(=O)(=O)[O-].[Na+] [Sodium dodecyl sulfate, reference compound]
Solution: 15.0

###

Experiment: Flash foam generation test (Example 70)
Format: physicochemical
Details: 0 min; 20 mg in 4 mL deionized water (10 wt % [sic]), 2 mL shaken 30 s in 15 mL tube, duplicate average
endpoint: Volume of foam after given time (cm^3)
Dear colleague, please return just the value in cm^3, with no unit written.

Problem: Item under review: CCCCCCCCCCN(C(C)=O)C1OC[C@@H](O)[C@H](O)[C@H]1O (stereo partly shown) . Reported Volume of foam after given time?
Solution: 8.3

Problem: Using the record for CCCCCCCCCCO[C@@H]1O[C@H](CO)[C@@H](O)[C@H](O)[C@H]1O [Decyl glucoside, reference compound] , report its Volume of foam after given time.
Solution: 12.0

Problem: Reported Volume of foam after given time, compound CCCCCCCCCCCCN(C(C)=O)C1O[C@H](CO)[C@@H](O[C@@H]2O[C@H](CO)[C@@H](O)[C@H](O)[C@H]2O)[C@H](O)[C@H]1O (stereo partly shown) : ____
Solution: 3.5

Problem: Form field: reported Volume of foam after given time of CCCCCCCCCCCCOS(=O)(=O)[O-].[Na+] [Sodium dodecyl sulfate, reference compound]
Solution: 15.0

###

Experiment: Flash foam generation test (Example 70)
Type: physicochemical
Conditions: 30 min; 20 mg in 4 mL deionized water (10 wt % [sic]), 2 mL shaken 30 s in 15 mL tube, duplicate average
endpoint: Volume of foam after given time (cm^3)
Numeric only. Scale: cm^3

Problem: Would you mind telling me what Volume of foam after given time value was observed for CCCCCCCCCCCCOS(=O)(=O)[O-].[Na+] [Sodium dodecyl sulfate, reference compound] ?
Solution: 15.0

Problem: Any idea what its Volume of foam after given time is? The molecule is CCCCCCCCCCN(C(C)=O)C1OC[C@@H](O)[C@H](O)[C@H]1O (stereo partly shown)
Solution: 2.3

Problem: Which Volume of foam after given time is listed for CCCCCCCCCCO[C@@H]1O[C@H](CO)[C@@H](O)[C@H](O)[C@H]1O [Decyl glucoside, reference compound] ?
Solution: 11.5

Problem: Consider the molecule shown here: CCCCCCCCCCCCN(C(C)=O)C1O[C@H](CO)[C@@H](O[C@@H]2O[C@H](CO)[C@@H](O)[C@H](O)[C@H]2O)[C@H](O)[C@H]1O (stereo partly shown) What is its recorded Volume of foam after given time?
Solution: 3.0

###

Test: Flash foam generation test (Example 70)
Format: physicochemical
Conditions: 5 min; 20 mg in 4 mL deionized water (10 wt % [sic]), 2 mL shaken 30 s in 15 mL tube, duplicate average
endpoint: Volume of foam after given time (cm^3)
Entry rule: numbers only, all in cm^3.

Problem: Given CCCCCCCCCCCCOS(=O)(=O)[O-].[Na+] [Sodium dodecyl sulfate, reference compound] , state its recorded Volume of foam after given time.
Solution: 15.0

Problem: Any idea what Volume of foam after given time was measured for CCCCCCCCCCCCN(C(C)=O)C1O[C@H](CO)[C@@H](O[C@@H]2O[C@H](CO)[C@@H](O)[C@H](O)[C@H]2O)[C@H](O)[C@H]1O (stereo partly shown) ?
Solution: 3.5

Problem: For the compound shown here, CCCCCCCCCCN(C(C)=O)C1OC[C@@H](O)[C@H](O)[C@H]1O (stereo partly shown) , give the reported Volume of foam after given time.
Solution: 4.8

Problem: What measured Volume of foam after given time goes with CCCCCCCCCCO[C@@H]1O[C@H](CO)[C@@H](O)[C@H](O)[C@H]1O [Decyl glucoside, reference compound] ?
Solution: 12.0

###

Assignment: determine reported Volume of foam after given time for the given compounds.
Assay: Flash foam generation test (Example 70)
Format: physicochemical
Conditions: 1 h; 20 mg in 4 mL deionized water (10 wt % [sic]), 2 mL shaken 30 s in 15 mL tube, duplicate average
Procedure: 20 mg of each surface-active composition for testing was dissolved in deionized water (4 mL) to give a 10 wt % solution, 2 mL was added to a 15 mL FALCON tube. Each falcon tube was secured in a holder before being vigorously shook for 30 seconds. The initial foam height and structure was noted. The foam height was then noted at 5 min, 10 min, 15 min, 30 min, 45 min, 1 hr and 2 hr after the initial measurement. The experiment was repeated in duplicate. […]
# unit: cm^3 | format: bare number

Problem: Please give the measured Volume of foam after given time for this compound: CCCCCCCCCCCCN(C(C)=O)C1O[C@H](CO)[C@@H](O[C@@H]2O[C@H](CO)[C@@H](O)[C@H](O)[C@H]2O)[C@H](O)[C@H]1O (stereo partly shown)
Solution: 2.8

Problem: What value of Volume of foam after given time has been reported for the following compound? CCCCCCCCCCCCOS(=O)(=O)[O-].[Na+] [Sodium dodecyl sulfate, reference compound]
Solution: 15.0

Problem: Tell me the measured Volume of foam after given time of CCCCCCCCCCO[C@@H]1O[C@H](CO)[C@@H](O)[C@H](O)[C@H]1O [Decyl glucoside, reference compound] , please.
Solution: 11.5

Problem: I'd like to know its Volume of foam after given time. The compound in question is CCCCCCCCCCN(C(C)=O)C1OC[C@@H](O)[C@H](O)[C@H]1O (stereo partly shown)
Solution: 2.0

###

Test: Lipophilic substances solubilization test, lemongrass oil (Example 71)
Type: physicochemical
Conditions: 2 mL of 5 wt % aqueous solution, stepwise addition of 2.5 μL, duplicate
endpoint: Maximum volume of lemongrass oil solubilized (µL)
Field: numeric (µL). Do not append units.

Problem: Need Maximum volume of lemongrass oil solubilized, item CCCCCCCCCCO[C@@H]1O[C@H](CO)[C@@H](O)[C@H](O)[C@H]1O [Decyl glucoside, reference compound]
Solution: 2.5

Problem: So what does the record say about Maximum volume of lemongrass oil solubilized for CCCCCCCCCCN(C(C)=O)C1OC[C@@H](O)[C@H](O)[C@H]1O (stereo partly shown) ?
Solution: 8.75

Problem: May I ask what Maximum volume of lemongrass oil solubilized has been recorded for CCCCCCCCN(C(C)=O)C1OC[C@@H](O)[C@H](O)[C@H]1O (stereo partly shown) ?
Solution: 5.0

Problem: Fill in: Maximum volume of lemongrass oil solubilized of CCCCCCCCCCCCN(C(C)=O)C1OC[C@@H](O)[C@H](O)[C@H]1O (stereo partly shown) is ___
Solution: 5.0
